Listing of recorded inhibition by entry.
Target: Mitogen-activated protein kinase 13 (Homo sapiens) (UniProt O15264);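 also: mean inhibition of p38delta, screened as part of the GSK PKIS kinase inhibitor set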
Sequence (whole entry): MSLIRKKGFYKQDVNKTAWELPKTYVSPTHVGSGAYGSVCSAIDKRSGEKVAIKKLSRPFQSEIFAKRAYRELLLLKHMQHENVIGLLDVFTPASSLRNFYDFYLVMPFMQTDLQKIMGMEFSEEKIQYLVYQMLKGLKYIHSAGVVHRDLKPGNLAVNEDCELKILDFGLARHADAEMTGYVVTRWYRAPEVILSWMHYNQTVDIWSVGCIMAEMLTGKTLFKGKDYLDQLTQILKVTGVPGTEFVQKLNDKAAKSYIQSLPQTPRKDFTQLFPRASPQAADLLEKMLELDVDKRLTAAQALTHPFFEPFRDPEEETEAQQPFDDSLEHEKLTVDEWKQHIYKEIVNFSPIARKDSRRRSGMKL
Conditions: at 1 µM
// units = %; emit number, no label

As a guide, the following entries are already answered.
{"columns": ["compound", "measurement.type", "output.unit", "readout.number"],
 "data": [
  ["FC(F)(F)c1cccc(Nc2nccc(-c3cnn4nc(-c5ccccc5)ccc34)n2)c1", "inhibition", "%", 0.28],
  ["COc1cc2ncn(-c3cc(OCCc4ccccc4)c(C(N)=O)s3)c2cc1OC", "inhibition", "%", 1.8]
]}

State its inhibition: "C/C(Nc1ccc(S(N)(=O)=O)cc1)=C1/C(=O)Nc2ccccc21"
-1.14

Annotate the compound "c1ccc(Oc2ccc(Nc3ncc(-c4ccccc4)o3)cc2)cc1" with its measured inhibition.
0.96

Answer with the recorded inhibition for the compound listed here: "COc1cc(Nc2ncc3c(C)nc(-c4cccc(C(F)(F)F)c4)n3n2)cc(OC)c1OC"
1.78

Given the compound COc1ccc2cc(-c3c(-c4ccncc4)nc(-c4ccc([S+](C)[O-])cc4C)n3C)ccc2c1 (centres undefined) , write its reported inhibition.
-0.19

Return value of inhibition for input "CN(c1ccc(NC(=O)Nc2c(Cl)cccc2Cl)cc1)c1ccnc(Nc2cccc(CS(C)(=O)=O)c2)n1" , no commentary.
1.46

Provide measured inhibition value, entry: "C[C@@H](Oc1cc(-n2cnc3ccc(OC4CCN(C)CC4)cc32)sc1C(N)=O)c1ccccc1Cl"
6.01

Specify measured inhibition for "CCN(CC)Cc1ccc(Nc2nccc(-c3cnn4ncccc34)n2)cc1" .
9.25
